- TEST_SYSTEM: Procathepsin L (Homo sapiens)
- Sequence (P07711 whole entry): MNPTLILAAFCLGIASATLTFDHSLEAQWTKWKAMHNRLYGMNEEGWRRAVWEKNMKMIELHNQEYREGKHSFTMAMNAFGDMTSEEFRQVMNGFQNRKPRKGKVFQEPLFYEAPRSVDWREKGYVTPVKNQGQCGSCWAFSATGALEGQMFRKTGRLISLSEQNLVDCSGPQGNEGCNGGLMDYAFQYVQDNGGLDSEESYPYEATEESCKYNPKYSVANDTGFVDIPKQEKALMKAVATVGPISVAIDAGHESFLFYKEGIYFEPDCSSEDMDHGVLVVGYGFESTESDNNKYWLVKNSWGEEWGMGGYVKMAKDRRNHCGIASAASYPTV
Checkbox rule: Ki lower than 100 nM = true; Ki not lower than 100 nM = false.

For orientation, consider the following solved cases.
>  <SMILES_INPUT>
CC(=O)/C=C/[C@H](C[C@@H]1CCNC1=O)NC(=O)[C@H](CC1CCCCC1)NC(=O)c1cccc(F)c1

>  <ASSIGNED_LABEL>
true

$$$$
>  <SMILES_INPUT>
CC(=O)/C=C/[C@H](C[C@@H]1CCNC1=O)NC(=O)[C@H](CC1CC1)NC(=O)c1ccccc1F

>  <ASSIGNED_LABEL>
false

$$$$
>  <SMILES_INPUT>
CC(=O)/C=C/[C@H](C[C@@H]1CCNC1=O)NC(=O)[C@H](CC1CCCCC1)NC(=O)c1ccc(F)cc1

>  <ASSIGNED_LABEL>
true

$$$$
>  <SMILES_INPUT>
CC(=O)/C=C/[C@H](C[C@@H]1CCNC1=O)NC(=O)[C@H](CC1CCCCC1)NC(=O)c1ccccc1F

>  <ASSIGNED_LABEL>
true

$$$$
>  <SMILES_INPUT>
CCCC[C@H](NC(=O)c1ccc(F)cc1)C(=O)N[C@H](/C=C/C(C)=O)C[C@@H]1CCNC1=O

>  <ASSIGNED_LABEL>
false

$$$$

Lab log: compare recorded Ki with 100 nM; is it strictly lower for CC(=O)/C=C/[C@H](C[C@@H]1CCNC1=O)NC(=O)[C@H](CC(C)(C)C)NC(=O)c1ccc(F)cc1 ?
false

Lab log: compare recorded Ki with 100 nM; is it strictly lower for CC(=O)/C=C/[C@H](C[C@@H]1CCNC1=O)NC(=O)[C@H](CC(C)C)NC(=O)c1ccc(F)cc1 ?
true

Lab log: compare recorded Ki with 100 nM; is it strictly lower for CCOC(=O)/C=C/[C@H](C[C@@H]1CCNC1=O)NC(=O)[C@H](Cc1ccccc1)NC(=O)[C@@H](Cc1ccc(F)cc1)NC(=O)OC(C)(C)C ?
false
